assay: In vivo pharmacokinetics in male C57BL/6 mice (IV and PO); conditions: male, C57BL/6, plasma; mouse, IV, 1 mg/kg; read-out: AUC0-tlast
attributeMeasured: AUC(0-t) (ng·h/mL)
Dear colleague, please return just the value in ng·h/mL, with no unit written.

Below, each entry is followed by its recorded AUC(0-t) result.
[2H]C([2H])(c1c[nH]c2cccc(OC)c12)[C@H]1CCCN1C([2H])([2H])[2H] | 1960
[2H]C([2H])([2H])N1CCC[C@@H]1Cc1c[nH]c2cccc(O)c12 | 461

Let's switch to this compound now.
Input "[2H]C([2H])(c1c[nH]c2cccc(O)c12)[C@H]1CCCN1C([2H])([2H])[2H]" . Output AUC(0-t): 595

* * *

Let's look at some compounds and their measured AUC(0-inf).
assay: In vivo pharmacokinetics in male C57BL/6 mice (IV and PO); conditions: male, C57BL/6, plasma; mouse, IV, 1 mg/kg
Dear colleague, please return just the value in ng·h/mL, with no unit written.

Below, each entry is followed by its recorded AUC(0-inf) result.
[2H]C([2H])([2H])N1CCC[C@@H]1Cc1c[nH]c2cccc(O)c12 | 463
[2H]C([2H])(c1c[nH]c2cccc(O)c12)[C@H]1CCCN1C([2H])([2H])[2H] | 598

Input "[2H]C([2H])(c1c[nH]c2cccc(OC)c12)[C@H]1CCCN1C([2H])([2H])[2H]" . Output AUC(0-inf): 1960

* * *

target: human 5-HT2A (h5-HT2A) receptor (Homo sapiens (Human)); test: FLIPR calcium assay, human 5-HT2A receptor, agonist mode; format: cell-based; details: read-out: h5-HT2A EC50; FLIPR, agonist mode
pEC50: −log10 of the molar value.
attributeMeasured: pEC50

Param item: [2H]C([2H])([2H])N1CCC[C@@H]1Cc1c[nH]c2cccc(OC(=O)CCCCCCC/C=C\C/C=C\CCCCC)c12 [Compound I-48] ; param system: human 5-HT2A (h5-HT2A) receptor (Homo sapiens (Human)); output pEC50: 5.00 to 6.00

* * *

Let's look at some molecules and their measured AUC(0-inf).
assay: In vivo pharmacokinetics in male SD rats (IV and PO); settings: male, SD, plasma; rat, PO, 3 mg/kg
Dear colleague, please return just the value in ng·h/mL, with no unit written.

Below, each entry is followed by its recorded AUC(0-inf) result.
[2H]C([2H])(c1c[nH]c2cccc(O)c12)[C@H]1CCCN1C([2H])([2H])[2H] | 392
[2H]C([2H])([2H])N1CCC[C@@H]1Cc1c[nH]c2cccc(O)c12 | 419

Input "[2H]C([2H])(c1c[nH]c2cccc(OC)c12)[C@H]1CCCN1C([2H])([2H])[2H]" . Output AUC(0-inf): 36.5
